Target: GSK3 (Homo sapiens, UniProt P49841)
Sequence (P49841 whole entry): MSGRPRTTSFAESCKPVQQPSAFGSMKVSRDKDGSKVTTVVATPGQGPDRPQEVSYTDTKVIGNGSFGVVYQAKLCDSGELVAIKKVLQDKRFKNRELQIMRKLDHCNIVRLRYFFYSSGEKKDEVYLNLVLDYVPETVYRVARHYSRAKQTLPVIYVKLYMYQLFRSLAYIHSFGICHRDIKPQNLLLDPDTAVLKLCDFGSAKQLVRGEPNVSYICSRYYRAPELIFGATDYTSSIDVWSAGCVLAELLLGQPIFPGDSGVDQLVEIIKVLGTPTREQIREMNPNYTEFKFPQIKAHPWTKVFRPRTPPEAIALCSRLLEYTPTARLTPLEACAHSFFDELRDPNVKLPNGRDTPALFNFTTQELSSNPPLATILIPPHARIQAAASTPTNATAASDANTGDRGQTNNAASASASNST
Assay: Kinase profiling (radiometric filter-binding)
Assay type: biochemical
Conditions: GSK3 (Greek letter lost), 1 µM inhibitor; read-out: Residual activity, %
Square brackets hold non-standard residues; d marks the D form. Peptide text beside a SMILES is read from it. * marks the point of attachment. X3 = O=C(CCCCCNCc1nc2c(sc3cc(Br)cnc32)c(=O)[nH]1)*
Recorded remaining activity at 1 µM by entry
Quick reminder: number only, in %, skip the unit.

Before answering, review these 4 worked examples.
>>> reading("N=C(N)NCCC[C@@H](NC(=O)CNC(=O)[C@@H](CCCNC(=N)N)NC(=O)[C@@H](CCCNC(=N)N)NC(=O)Cn1cc(CNCc2nc3c(sc4ccc(Br)cc43)c(=O)[nH]2)nn1)C(=O)N[C@H](CCCCN)C(N)=O")
64
>>> reading("N=C(N)NCCC[C@@H](NC(=O)CCCCCNCc1nc2c(sc3cc(Br)cnc32)c(=O)[nH]1)C(=O)N[C@H](CCCNC(=N)N)C(=O)N[C@H](CCCNC(=N)N)C(=O)N[C@H](CCCNC(=N)N)C(=O)N[C@H](CCCNC(=N)N)C(=O)N[C@H](CCCNC(=N)N)C(=O)N[C@H](CCCCN)C(N)=O [ARC-3126, BPTP-Ahx-(D-Arg)6-D-Lys-NH2] (X3-[dR][dR][dR][dR][dR][dR][dK]-NH2)")
80
>>> reading("N=C(N)NCCC[C@@H](NC(=O)CNC(=O)[C@@H](CCCNC(=N)N)NC(=O)[C@@H](CCCNC(=N)N)NC(=O)CCCCCCCNCc1nc2c(sc3ccc(Br)cc32)c(=O)[nH]1)C(=O)N[C@H](CCCCN)C(N)=O")
75
>>> reading("N=C(N)NCCC[C@@H](NC(=O)CNC(=O)[C@@H](CCCNC(=N)N)NC(=O)[C@@H](CCCNC(=N)N)NC(=O)CCCCCCCNCc1nc2c(sc3cc(Br)cnc32)c(=O)[nH]1)C(=O)N[C@H](CCCCN)C(N)=O")
110

Please turn your attention to the following entry.
Give the value of remaining activity at 1 µM reported for the following: N=C(N)NCCC[C@@H](NC(=O)CCCCCNC(=O)Cn1cnc2c(I)c(I)c(I)c(I)c21)C(=O)N[C@H](CCCNC(=N)N)C(=O)N[C@H](CCCNC(=N)N)C(=O)N[C@H](CCCNC(=N)N)C(=O)N[C@H](CCCNC(=N)N)C(=O)N[C@H](CCCNC(=N)N)C(=O)N[C@H](CCCCN)C(N)=O
140

====

Target: SYK (Homo sapiens, UniProt P43405)
Assay: Kinase profiling (radiometric filter-binding)
Assay type: biochemical
Conditions: 1 µM inhibitor, read-out: Residual activity, %
Square brackets hold non-standard residues; d marks the D form. Peptide text beside a SMILES is read from it. * marks the point of attachment. X3 = O=C(CCCCCNCc1nc2c(sc3cc(Br)cnc32)c(=O)[nH]1)*
Recorded remaining activity at 1 µM by entry
Quick reminder: number only, in %, skip the unit.

Before answering, review these 4 worked examples.
>>> reading("N=C(N)NCCC[C@@H](NC(=O)CNC(=O)[C@@H](CCCNC(=N)N)NC(=O)[C@@H](CCCNC(=N)N)NC(=O)Cn1cc(CNCc2nc3c(sc4ccc(Br)cc43)c(=O)[nH]2)nn1)C(=O)N[C@H](CCCCN)C(N)=O [Compound 3, BBTP-Amt-(D-Arg)2-Gly-D-Arg-D-Lys-NH2]")
114
>>> reading("N=C(N)NCCC[C@@H](NC(=O)CCCCCNCc1nc2c(sc3cc(Br)cnc32)c(=O)[nH]1)C(=O)N[C@H](CCCNC(=N)N)C(=O)N[C@H](CCCNC(=N)N)C(=O)N[C@H](CCCNC(=N)N)C(=O)N[C@H](CCCNC(=N)N)C(=O)N[C@H](CCCNC(=N)N)C(=O)N[C@H](CCCCN)C(N)=O [ARC-3126, BPTP-Ahx-(D-Arg)6-D-Lys-NH2] (X3-[dR][dR][dR][dR][dR][dR][dK]-NH2)")
75
>>> reading("N=C(N)NCCC[C@@H](NC(=O)CNC(=O)[C@@H](CCCNC(=N)N)NC(=O)[C@@H](CCCNC(=N)N)NC(=O)CCCCCCCNCc1nc2c(sc3ccc(Br)cc32)c(=O)[nH]1)C(=O)N[C@H](CCCCN)C(N)=O [Compound 2, BBTP-Aoc-(D-Arg)2-Gly-D-Arg-D-Lys-NH2]")
123
>>> reading("N=C(N)NCCC[C@@H](NC(=O)CCCCCNC(=O)Cn1cnc2c(I)c(I)c(I)c(I)c21)C(=O)N[C@H](CCCNC(=N)N)C(=O)N[C@H](CCCNC(=N)N)C(=O)N[C@H](CCCNC(=N)N)C(=O)N[C@H](CCCNC(=N)N)C(=O)N[C@H](CCCNC(=N)N)C(=O)N[C@H](CCCCN)C(N)=O [ARC-3125, TIBI-CH2-C(=O)-Ahx-(D-Arg)6-D-Lys-NH2]")
94

Please turn your attention to the following entry.
Give the value of remaining activity at 1 µM reported for the following: N=C(N)NCCC[C@@H](NC(=O)CNC(=O)[C@@H](CCCNC(=N)N)NC(=O)[C@@H](CCCNC(=N)N)NC(=O)CCCCCCCNCc1nc2c(sc3cc(Br)cnc32)c(=O)[nH]1)C(=O)N[C@H](CCCCN)C(N)=O [Compound 1, BPTP-Aoc-(D-Arg)2-Gly-D-Arg-D-Lys-NH2]
133
